- EXPERIMENT_SUMMARY: Volume of distribution at steady state in rat at 1 mg/kg, iv or 5 mg/kg, po
- Type: ADME, organism-based
- DETAILS: in vivo, read-out: Vdss
QUANTITY_MEASURED: Vd (L/kg)

1) O=C(NOCCO)c1ccn2cncc2c1Nc1ccc(I)cc1F : 0.46
2) O=C(NOCCO)c1ccc2cncn2c1Nc1ccc(I)cc1F : 0.5

###

- EXPERIMENT_SUMMARY: Hepatic clearance in rat liver microsomes
- Format: ADME
QUANTITY_MEASURED: CLhep predicted (mL/min/kg)

# example entries with known answers
1) C[C@H](O)CONC(=O)c1ncc2cncn2c1Nc1ccc(I)cc1F : 44
2) O=C(NOCCO)c1ccn2cncc2c1Nc1ccc(I)cc1F : 40

(a) O=C(NOCCO)c1ncc2cncn2c1Nc1ccc(I)cc1F
(b) C[C@H](CO)CONC(=O)c1ncc2cncn2c1Nc1ccc(I)cc1F
## Task Identify the item whose CLhep predicted is the smaller number: a or b Reply briefly: the label of your chosen item.
## Result b
(b: 19 mL/min/kg, a: 41 mL/min/kg)
